# Tgt: A2AR (hADORA2A-HEK293 cells) (Homo sapiens, UniProt P29274)
# Construct: expressed in transfected cells; host or cells: HEK293 (hADORA2A-HEK293)
# Sequence (P29274 whole entry): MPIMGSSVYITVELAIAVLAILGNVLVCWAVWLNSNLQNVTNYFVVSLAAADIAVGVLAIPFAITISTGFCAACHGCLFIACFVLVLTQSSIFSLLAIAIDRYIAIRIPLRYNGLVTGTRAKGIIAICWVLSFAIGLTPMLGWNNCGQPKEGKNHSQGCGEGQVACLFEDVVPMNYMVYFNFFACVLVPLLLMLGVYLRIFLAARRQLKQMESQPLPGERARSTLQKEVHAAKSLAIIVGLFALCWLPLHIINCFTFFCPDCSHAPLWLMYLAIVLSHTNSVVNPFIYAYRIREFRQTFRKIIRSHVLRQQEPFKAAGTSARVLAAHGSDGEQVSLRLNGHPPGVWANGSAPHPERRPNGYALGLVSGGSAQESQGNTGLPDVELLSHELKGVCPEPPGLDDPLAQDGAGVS
# Test Details: functional cAMP production assay: NECA stimulation of cAMP production and its inhibition by A2AR antagonists
# Type: cell-based
# Conditions Used: A2AR-expressing HEK293 cells (hADORA2A-HEK293); NECA at EC80; TR-FRET cAMP readout; read-out: A2AR Potency (IC50, inhibition of NECA-stimulated cAMP production)
pIC50: −log10 of the molar value.
Observed Property: pIC50

Molecule | pIC50
Nc1nc(NCCc2ccc(NC(=O)CCN3CCC3)cc2)nc2nc(-c3ccco3)nn12 | 7.86
Nc1nc(NCCc2ccc(OCCc3ccccn3)cc2)nc2nc(-c3ccco3)nn12 | 7.96
Nc1nc(NCCc2ccc(NC(=O)Cc3ccncc3)cc2)nc2nc(-c3ccco3)nn12 | 7.76
CN1CCCN(CCOc2ccc(CCNc3nc(N)n4nc(-c5ccco5)nc4n3)cc2)CC1 | 7.48

I: Nc1nc(NCCc2ccccn2)nc2nc(-c3ccco3)nn12
II: Nc1nc(NCCc2ccc(OCCN3CCCCCC3)cc2)nc2nc(-c3ccco3)nn12
III: Nc1nc(NCCc2ccc(OCC3CCN(Cc4cccnc4)C3)cc2)nc2nc(-c3ccco3)nn12 (stereo in doubt)
Sort these molecules on pIC50 so the largest reading comes first. Enter labels, ranked according to the request.
I, II, III

* * *

# Tgt: A2AR (hADORA2A-HEK293 cells) (Homo sapiens, UniProt P29274)
# Construct: expressed in transfected cells; host or cells: HEK293 (hADORA2A-HEK293)
# Test Details: functional cAMP production assay: NECA stimulation of cAMP production and its inhibition by A2AR antagonists
# Assay type: cell-based
# Conditions Used: A2AR-expressing HEK293 cells (hADORA2A-HEK293); NECA at EC80; TR-FRET cAMP readout; read-out: A2AR Potency (IC50, inhibition of NECA-stimulated cAMP production)
# Procedure: The antagonistic activities of the triazolotriazine derivatives of the present invention were measured in a functional cAMP production assay. […] After resuspending the cells in fresh complete medium, the cell viability is counted using the trypan blue exclusion method. […] Then the A2A receptor agonist NECA (final concentration=EC80, which was determined in the same experiment slightly earlier) was added to the sample and the mixture was incubated again for 30 min at 37° C. […]
Observed Property: IC50 (nM)

Here is how some molecules turned out for IC50.
Molecule | Observed Value
COCCOCCOc1ccc(CCNc2nc(N)n3nc(-c4ccco4)nc3n2)cc1 [Example 60] | 10
Nc1nc(NCCc2ccc(NC(=O)CCN3CCCC3)cc2)nc2nc(-c3ccco3)nn12 [Example 226] | 20
Nc1nc(NCCc2ccc(OCc3ccccn3)cc2)nc2nc(-c3ccco3)nn12 [Example 26] | 8

1: Nc1nc(NCCc2ccncn2)nc2nc(-c3ccco3)nn12 [Example 44]
2: CN(C)CCNc1ccc(CCNc2nc(N)n3nc(-c4ccco4)nc3n2)cc1 [Example 254]
Of 1 and 2 , whose reported IC50 is the larger number? Write down the label of the entry you select.
1

* * *

# Tgt: A2AR (hADORA2A-HEK293 cells) (Homo sapiens, UniProt P29274)
# Construct: expressed in transfected cells; host or cells: HEK293 (hADORA2A-HEK293)
# Test Details: functional cAMP production assay: NECA stimulation of cAMP production and its inhibition by A2AR antagonists
# Type: cell-based
# Conditions Used: A2AR-expressing HEK293 cells (hADORA2A-HEK293); NECA at EC80; TR-FRET cAMP readout; read-out: A2AR Potency (IC50, inhibition of NECA-stimulated cAMP production)
pIC50: −log10 of the molar value.
Observed Property: pIC50

A: COCCOCCOCCOCCOCCOCCOc1ccc(CCNc2nc(N)n3nc(-c4ccco4)nc3n2)cc1 [Example 78]
B: Nc1nc(NCCc2ccc(NC(=O)CN3CCOCC3)cc2)nc2nc(-c3ccco3)nn12 [Example 320]
Of A and B , whose reported pIC50 is the larger number? Write down the label of the entry you select.
B

* * *

# Tgt: A2AR (hADORA2A-HEK293 cells) (Homo sapiens)
# Construct: expressed in transfected cells; host or cells: HEK293 (hADORA2A-HEK293)
# Test Details: functional cAMP production assay: NECA stimulation of cAMP production and its inhibition by A2AR antagonists
# Type: cell-based
# Conditions Used: A2AR-expressing HEK293 cells (hADORA2A-HEK293); NECA at EC80; TR-FRET cAMP readout; read-out: A2AR Potency (IC50, inhibition of NECA-stimulated cAMP production)
pIC50: −log10 of the molar value.
Observed Property: pIC50

Here is how some compounds turned out for pIC50.
Compound | Observed Property | Observed Value
CN1CCN(CCC(=O)Nc2ccc(CCNc3nc(N)n4nc(-c5ccco5)nc4n3)cc2)CC1 [Example 229] | pIC50 | 7.60
CN(C)Cc1ccc(CCNc2nc(N)n3nc(-c4ccco4)nc3n2)cc1 [Example 306] | pIC50 | 6.79
Nc1nc(NCCc2ccc(OCc3ccncc3)cc2)nc2nc(-c3ccco3)nn12 [Example 29] | pIC50 | 8.15
Nc1nc(NCCc2ccc(OCCN3CCOCC3)cc2)nc2nc(-c3ccco3)nn12 [Example 82] | pIC50 | 8.05

a: Nc1nc(NCCc2ccc(OCc3cccnc3)cc2)nc2nc(-c3ccco3)nn12 [Example 32]
b: Nc1nc(NCCc2ccc(OCCN3CCC3)cc2)nc2nc(-c3ccco3)nn12 [Example 98]
Of a and b , whose reported pIC50 is the larger number? Write down the label of the entry you select.
a

* * *

# Tgt: A2AR (hADORA2A-HEK293 cells) (Homo sapiens, UniProt P29274)
# Construct: expressed in transfected cells; host or cells: HEK293 (hADORA2A-HEK293)
# Test Details: functional cAMP production assay: NECA stimulation of cAMP production and its inhibition by A2AR antagonists
# Format: cell-based
# Conditions Used: A2AR-expressing HEK293 cells (hADORA2A-HEK293); NECA at EC80; TR-FRET cAMP readout; read-out: A2AR Potency (IC50, inhibition of NECA-stimulated cAMP production)
pIC50: −log10 of the molar value.
Observed Property: pIC50

Line Notation | Observed Value
Nc1nc(NCCc2ccc(OCCOCCN3CCOCC3)cc2)nc2nc(-c3ccco3)nn12 | 7.80
CN1CCC(C(=O)Nc2ccc(CCNc3nc(N)n4nc(-c5ccco5)nc4n3)cc2)CC1 | 7.95
COCCOc1ccc(CCNc2nc(N)n3nc(-c4ccco4)nc3n2)cc1 | 8.15

P: COCCOCCOCCOCCOCCOCCOCCOc1ccc(CCNc2nc(N)n3nc(-c4ccco4)nc3n2)cc1
Q: COCCOCCOCCOCCOCCOCCOCCOCCOCCOc1ccc(CCNc2nc(N)n3nc(-c4ccco4)nc3n2)cc1
Of P and Q , whose reported pIC50 is the larger number? Write down the label of the entry you select.
P

A: CN1CCC(COc2ccc(CCNc3nc(N)n4nc(-c5ccco5)nc4n3)cc2)CC1
B: COCCOCCOCCOCCOCCOc1ccc(CCNc2nc(N)n3nc(-c4ccco4)nc3n2)cc1
Of A and B , whose reported pIC50 is the larger number? Write down the label of the entry you select.
A
(A: 7.85, B: 7.49)

A: CC(C)(O)C(=O)Nc1ccc(CCNc2nc(N)n3nc(-c4ccco4)nc3n2)cc1
B: CN(C)CCOc1ccc(CCNc2nc(N)n3nc(-c4ccco4)nc3n2)cc1
From the items above, decide which of A and B has the lower pIC50 reading. Write down the label of the entry you select.
B
(B: 7.74, A: 7.97)

P: Nc1nc(NCCc2ccc(OCCN3CC[C@@H](F)C3)cc2)nc2nc(-c3ccco3)nn12
Q: Nc1nc(NCCc2ccc(OCCCc3cccnc3)cc2)nc2nc(-c3ccco3)nn12
From the items above, decide which of P and Q has the lower pIC50 reading. Write down the label of the entry you select.
P

* * *

# Tgt: A2AR (hADORA2A-HEK293 cells) (Homo sapiens, UniProt P29274)
# Construct: expressed in transfected cells; host or cells: HEK293 (hADORA2A-HEK293)
# Test Details: functional cAMP production assay: NECA stimulation of cAMP production and its inhibition by A2AR antagonists
# Format: cell-based
# Conditions Used: A2AR-expressing HEK293 cells (hADORA2A-HEK293); NECA at EC80; TR-FRET cAMP readout; read-out: A2AR Potency (IC50, inhibition of NECA-stimulated cAMP production)
pIC50: −log10 of the molar value.
Observed Property: pIC50

Line Notation | Tgt | pIC50
Nc1nc(NCCc2ccc(OCCOCC(F)(F)F)cc2)nc2nc(-c3ccco3)nn12 | A2AR (hADORA2A-HEK293 cells) (Homo sapiens, UniProt P29274) | 7.81
CN(C)[C@H]1CCN(CCOc2ccc(CCNc3nc(N)n4nc(-c5ccco5)nc4n3)cc2)C1 | A2AR (hADORA2A-HEK293 cells) (Homo sapiens, UniProt P29274) | 7.60
CC(C)(CO)C(=O)Nc1ccc(CCNc2nc(N)n3nc(-c4ccco4)nc3n2)cc1 | A2AR (hADORA2A-HEK293 cells) (Homo sapiens, UniProt P29274) | 7.93
CN(C)C1CN(CCOc2ccc(CCNc3nc(N)n4nc(-c5ccco5)nc4n3)cc2)C1 | A2AR (hADORA2A-HEK293 cells) (Homo sapiens, UniProt P29274) | 7.76
